These data points were gathered from PubChem BioAssay (NCI).

test system: DMS 114 small cell lung; test: NCI tumour cell line growth inhibition, 48 h
assay.endpoint: TGI (µM)

{"molecule": "CCOC(=O)N[C@H]1CCc2cc(O)c(OC)c(OC)c2-c2ccc(SC)c(=O)cc21", "censor.symbol": "=", "number": 0.473}
{"molecule": "Oc1ccc2c3c1OC1C(=NN=C4CCC5(O)C6Cc7ccc(O)c8c7C5(CCN6CC5CC5)C4O8)CCC4(O)C(C2)N(CC2CC2)CCC314 (centres undefined)", "censor.symbol": "=", "number": 44.6}
{"molecule": "Cc1cc(NS(=O)(=O)c2ccc(NC(=O)c3cccc4cc5ccccc5nc34)cc2)no1", "censor.symbol": "=", "number": 49.2}
{"molecule": "COc1cccc(C2C(C(=O)O)=C(CO)Oc3cc4c(cc32)OCO4)c1 (centres undefined)", "censor.symbol": ">", "number": 100}
{"molecule": "O=C1SC(c2ccccc2)(c2ccccc2)c2ccccc21", "censor.symbol": "=", "number": 94.4}
{"molecule": "CC(=O)[O-].[Ni].c1ccc(/C(=N\\Nc2ccccn2)c2ccccn2)cc1", "censor.symbol": "=", "number": 3.36}
{"molecule": "COc1cc2c(oc(=O)c3cc4ccoc4c(OC)c32)c2cccc(O)c12", "censor.symbol": ">", "number": 100}
{"molecule": "O=C1Cc2ccccc2N1c1c(Cl)cccc1Cl", "censor.symbol": "=", "number": 95.4}
{"molecule": "Cc1ccc(NC(=O)COC(=O)c2cccc3c(=O)c4ccccc4[nH]c23)cc1", "censor.symbol": ">", "number": 100}
{"molecule": "CCC[CH2][Sn]1([CH2]CCC)[O]C(=O)c2cccc(OC)c2[O]1", "censor.symbol": "=", "number": 0.624}
{"molecule": "CCN(CC)CCC(=O)N1CCc2c([nH]c3ccccc23)C1c1cccnc1 (centres undefined)", "censor.symbol": ">", "number": 100}
{"molecule": "Cc1ccc(S(=O)(=O)N/N=C/c2oc(-c3ccccc3Cl)c(-c3ccccc3Cl)c2[N+](=O)[O-])cc1", "censor.symbol": "=", "number": 76.7}
{"molecule": "N#CCc1ccc(/C(C#N)=C2/OC(=N)C(c3ccc(CC#N)cc3)C2=O)cc1 (centres undefined)", "censor.symbol": ">", "number": 100}
{"molecule": "COc1ccc2c[n+](C)c3c4cc(OC)c(OC)cc4ccc3c2c1", "censor.symbol": "=", "number": 4.16}
{"molecule": "CC(=O)OC1(C#N)CC2OC1C1C2N1C(=O)OC(C)(C)C (centres undefined)", "censor.symbol": ">", "number": 100}
{"molecule": "COc1ccc(CC2NCCc3cc(OC)c(OC)cc32)cc1 (centres undefined)", "censor.symbol": ">", "number": 100}
{"molecule": "O=C(O)/C=C/c1cnc[nH]1", "censor.symbol": ">", "number": 500}
{"molecule": "Cc1ccc(-c2nc3c(C(=O)NCCN(C)C)cccc3[nH]2)cc1", "censor.symbol": "=", "number": 26.6}
{"molecule": "O=C1c2ccccc2C(=O)C2C3c4ccccc4C(c4ccccc43)C12 (centres undefined)", "censor.symbol": "=", "number": 42.7}

* * *

tested on: A549 NSCLC; test: NCI tumour cell line growth inhibition, 48 h
Reported values of TGI for individual entries

{"molecule": "CCCN1CN(c2ccccc2)C2(CCN(CCCC(=O)c3ccc(F)cc3)CC2)C1=O", "TGI": "29.8 µM"}
{"molecule": "N#Cc1c(-c2ccc(Cl)cc2)c(-c2ccc(Cl)cc2)nn(CCOC(=O)CCC(=O)O)c1=O", "TGI": "> 88.6 µM"}
{"molecule": "O=C(Nc1nncs1)NS(=O)(=O)n1cnc2ccccc21", "TGI": "> 100 µM"}
{"molecule": "CNC(=O)c1n[nH]n(Cc2ccccc2)c1=S", "TGI": "> 100 µM"}
{"molecule": "O=C1/C(=C/c2ccc(Cl)cc2)CN(Cc2cn(CCNc3ccnc4cc(Cl)ccc34)nn2)C/C1=C\\c1ccc(Cl)cc1", "TGI": "0.834 µM"}
{"molecule": "c1ccc2c(c1)CCN1CCc3c([nH]c4ccccc34)C21 (configuration not stated)", "TGI": "> 100 µM"}
{"molecule": "C[C@@H]1OC(=O)C[C@H]2CC(=O)N(CCC3CN(S(=O)(=O)C(F)(F)F)c4ccc(Cc5ccc6c(c5)C(CCN5C[C@H]7[C@@H](CC(=O)O[C@H]7C)CC5=O)CN6S(=O)(=O)C(F)(F)F)cc43)C[C@@H]21 (some centres not stated)", "TGI": "> 100 µM"}

* * *

test system: RPMI-8226 leukemia; assay: NCI tumour cell line growth inhibition, 48 h

{"compound": "CCOc1ccc(N=Nc2ccc3oc(=O)c(/C(C)=N\\NC(=O)CC(=O)Nc4ccc(Cl)cc4)cc3c2)cc1", "experimental.system": "RPMI-8226 leukemia", "censor.symbol": "=", "TGI, µM": 64.7}
{"compound": "COc1ccc(N(C)c2nc(Cl)nc3ccn(C)c23)cc1", "experimental.system": "RPMI-8226 leukemia", "censor.symbol": ">", "TGI, µM": 100}
{"compound": "Oc1ccc2c3c1OC1C(=NN=C4CCC5(O)C6Cc7ccc(O)c8c7C5(CCN6CC5CC5)C4O8)CCC4(O)C(C2)N(CC2CC2)CCC314 (stereo not given)", "experimental.system": "RPMI-8226 leukemia", "censor.symbol": "=", "TGI, µM": 88.7}
{"compound": "O=c1oc2cc(O)ccc2cc1-c1nc2ccccc2s1", "experimental.system": "RPMI-8226 leukemia", "censor.symbol": ">", "TGI, µM": 100}
{"compound": "CC1(C)N=C(N)N=C(N)N1c1ccc(OCC(=O)N2CCOCC2)c(Cl)c1", "experimental.system": "RPMI-8226 leukemia", "censor.symbol": ">", "TGI, µM": 100}
{"compound": "NC(CCCNc1cccc(O)c1)C(=O)O (stereo not given)", "experimental.system": "RPMI-8226 leukemia", "censor.symbol": ">", "TGI, µM": 100}
{"compound": "COc1cc2c3c(n(CCCNC(=O)OCC4c5ccccc5-c5ccccc54)c(=O)c2cc1OC)-c1cc2c(cc1C3=O)OCO2", "experimental.system": "RPMI-8226 leukemia", "censor.symbol": ">", "TGI, µM": 100}
{"compound": "CCCCCCCCCCCCCC(=O)OC(/C=C/C(C)C)C(O)C(O)C(OC)C(=O)NC1CCCCNC1=O (stereo not given)", "experimental.system": "RPMI-8226 leukemia", "censor.symbol": "=", "TGI, µM": 15.9}
{"compound": "COc1cc(C(=O)N2CCN(c3ccccc3OC)CC2)c(N)cc1OCc1ccccc1", "experimental.system": "RPMI-8226 leukemia", "censor.symbol": "=", "TGI, µM": 49.2}
{"compound": "O=Cc1[nH]c(=O)[nH]c(=O)c1CCl", "experimental.system": "RPMI-8226 leukemia", "censor.symbol": ">", "TGI, µM": 72.1}

* * *

test system: MDA-MB-435
Labels: active, inactive

{"structure.notation": "COc1ccc2c(c1)C(=O)/C(=C/c1ccc([N+](=O)[O-])s1)O2", "class.assignment": "active"}
{"structure.notation": "COc1cc2c3c(n(CCCNC(=O)OCC4c5ccccc5-c5ccccc54)c(=O)c2cc1OC)-c1cc2c(cc1C3=O)OCO2", "class.assignment": "inactive"}
{"structure.notation": "COc1ccc(Cn2cnc3cc(C(=O)Nc4cccc5ccccc45)ccc32)c(OC)c1", "class.assignment": "active"}
{"structure.notation": "O=C1Nc2ccccc2/C1=C/c1cn(C(=O)c2c(Cl)cccc2Cl)c2ccccc12", "class.assignment": "inactive"}
{"structure.notation": "CCCCCCCCCCCCSC(=NC)NC", "class.assignment": "inactive"}
{"structure.notation": "CO/N=C(\\COc1ccc2c(c1)oc(=O)c1cc(OC)ccc12)c1ccc(F)cc1", "class.assignment": "inactive"}
{"structure.notation": "O=C1c2cccc3cccc(c23)C(=O)N1CCCCN1CCN(CCCCOc2ccc(-c3nc4ccc(N5CCOCC5)cc4[nH]3)cc2)CC1", "class.assignment": "inactive"}
{"structure.notation": "CO/N=C(\\COc1ccc2c(c1)oc(=O)c1cc(OC)ccc12)c1cccc(OC)c1", "class.assignment": "inactive"}
{"structure.notation": "COc1cc(Nc2ncc3c(C)nc(-c4cccc(Oc5ccccc5)c4)n3n2)cc(OC)c1OC", "class.assignment": "inactive"}

* * *

system: NCI-H460 lung
Labels: True for active, False for inactive

{"compound": "COc1cc(OC)c2cc(C(=O)O)c(=O)oc2c1", "class.assignment": "False"}
{"compound": "CCCCCCCCCCCCCCCCOC(=O)c1c(C)[nH]c(/C=C2\\N=C(c3ccc[nH]3)C=C2OC)c1C", "class.assignment": "True"}
{"compound": "COc1ccc2cc3[n+](cc2c1OC)CCc1cc2c(cc1-3)OCO2", "class.assignment": "False"}
{"compound": "COc1ccc2c(c1)C(=O)/C(=C/c1ccc([N+](=O)[O-])s1)O2", "class.assignment": "True"}
{"compound": "CCCCCCCCCCCCSC(=NC)NC", "class.assignment": "False"}
{"compound": "O[C@@H]1CCCN1Cc1cc2cc3c(cc2c2cc(OCc4ccccc4)ccc12)OCO3", "class.assignment": "False"}
{"compound": "COc1ccc(/C(=N\\O)c2cc(OC)c(OC)c(OC)c2)c(OC)c1N", "class.assignment": "False"}
{"compound": "COc1cc(C2CC(c3ccc(Nc4ccnc5cc(Cl)ccc45)cc3)=NN2C=O)cc(OC)c1OC (centres undefined)", "class.assignment": "False"}
{"compound": "CCC[CH2][Sn]1([CH2]CCC)[O]C(=O)c2cccc(OC)c2[O]1", "class.assignment": "False"}
